# target-or-test-system: PI3Kδ (p110δ/p85α) Recombinant Human Protein (Homo sapiens (Human))
# Sequence (O00329 whole entry): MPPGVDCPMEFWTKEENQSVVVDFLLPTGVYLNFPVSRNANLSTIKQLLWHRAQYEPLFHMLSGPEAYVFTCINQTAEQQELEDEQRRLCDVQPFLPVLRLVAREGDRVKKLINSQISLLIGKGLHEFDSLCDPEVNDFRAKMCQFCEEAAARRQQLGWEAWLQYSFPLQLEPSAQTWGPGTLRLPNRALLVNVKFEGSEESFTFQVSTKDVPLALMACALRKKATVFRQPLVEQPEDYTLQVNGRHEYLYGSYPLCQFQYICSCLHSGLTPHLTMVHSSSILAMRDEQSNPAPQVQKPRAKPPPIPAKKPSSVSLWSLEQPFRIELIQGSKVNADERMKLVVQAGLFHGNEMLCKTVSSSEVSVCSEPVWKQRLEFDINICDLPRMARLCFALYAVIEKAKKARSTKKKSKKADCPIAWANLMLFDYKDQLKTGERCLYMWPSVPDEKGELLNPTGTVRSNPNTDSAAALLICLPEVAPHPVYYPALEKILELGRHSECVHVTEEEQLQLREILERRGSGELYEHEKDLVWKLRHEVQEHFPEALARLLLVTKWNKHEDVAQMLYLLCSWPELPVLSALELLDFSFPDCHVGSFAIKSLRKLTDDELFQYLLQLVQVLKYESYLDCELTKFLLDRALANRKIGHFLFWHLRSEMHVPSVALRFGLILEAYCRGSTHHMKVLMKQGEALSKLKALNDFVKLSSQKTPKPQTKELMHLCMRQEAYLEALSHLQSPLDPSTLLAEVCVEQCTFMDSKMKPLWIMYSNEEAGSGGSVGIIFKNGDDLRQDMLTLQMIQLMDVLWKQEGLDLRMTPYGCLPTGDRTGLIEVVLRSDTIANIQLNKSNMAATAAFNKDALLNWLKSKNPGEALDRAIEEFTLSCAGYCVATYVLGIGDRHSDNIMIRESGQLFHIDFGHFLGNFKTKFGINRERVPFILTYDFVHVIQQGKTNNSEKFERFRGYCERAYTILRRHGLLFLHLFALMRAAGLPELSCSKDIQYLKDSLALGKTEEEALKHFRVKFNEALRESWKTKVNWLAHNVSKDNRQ
# Sequence (P27986 whole entry partner): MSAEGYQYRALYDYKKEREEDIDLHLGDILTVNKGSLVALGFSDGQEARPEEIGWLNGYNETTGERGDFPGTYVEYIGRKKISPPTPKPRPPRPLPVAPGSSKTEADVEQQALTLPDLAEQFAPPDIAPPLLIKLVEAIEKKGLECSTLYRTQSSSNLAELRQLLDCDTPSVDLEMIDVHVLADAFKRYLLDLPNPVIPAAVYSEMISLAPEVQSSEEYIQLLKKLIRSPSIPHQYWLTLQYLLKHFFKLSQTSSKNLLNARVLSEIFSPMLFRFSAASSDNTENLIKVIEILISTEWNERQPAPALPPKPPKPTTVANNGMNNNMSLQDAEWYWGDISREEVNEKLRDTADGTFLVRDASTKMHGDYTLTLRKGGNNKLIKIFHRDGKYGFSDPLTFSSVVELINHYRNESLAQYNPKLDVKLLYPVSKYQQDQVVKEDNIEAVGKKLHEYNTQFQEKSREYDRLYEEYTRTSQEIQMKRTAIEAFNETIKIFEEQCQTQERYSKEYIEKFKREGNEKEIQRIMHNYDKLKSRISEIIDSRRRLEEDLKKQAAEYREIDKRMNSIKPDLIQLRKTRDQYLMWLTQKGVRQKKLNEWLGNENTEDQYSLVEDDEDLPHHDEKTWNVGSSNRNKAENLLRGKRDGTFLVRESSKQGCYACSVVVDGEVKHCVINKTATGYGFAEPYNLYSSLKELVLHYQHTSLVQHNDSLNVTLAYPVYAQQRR
# assay: PI3Kδ Scintillation Proximity Assay
pIC50: −log10 of the molar value. Counter-ions that a name gives are not always drawn.
Consider the following compounds; for each one, report its pIC50.

Fill blank: measured pIC50 of the compound Cc1nc(N)c2ncc(-c3cc(S(=O)(=O)NC45CCC(CO)(C4)C5)ccc3C)n2n1 [Example 268, trifluoroacetate salt] is ____.
6.30 to 7.00

Fill blank: measured pIC50 of the compound Cc1cc(-c2cn3c(-c4cc(S(C)(=O)=O)ccc4C)cnc3c(N)n2)c(F)cn1 [Example 489, trifluoroacetate] is ____.
6.30 to 7.00

Fill blank: measured pIC50 of the compound Cc1ccc(S(=O)(=O)NC23CC(Cn4ccnc4)(C2)C3)cc1-c1cnc2c(N)nc(C(F)(F)F)nn12 [Example 324, trifluoroacetate salt] is ____.
6.30 to 7.00

Fill blank: measured pIC50 of the compound Cc1cn2c(-c3cc(S(=O)(=O)N[C@H]4CC[C@](C)(O)CC4)ccc3C)cnc2c(N)n1 is ____.
> 7.00

Fill blank: measured pIC50 of the compound Cc1cnccc1-c1cn2c(-c3cc(S(C)(=O)=O)ccc3C)cnc2c(N)n1 [Example 473, trifluoroacetate] is ____.
5.70 to 6.30

Fill blank: measured pIC50 of the compound Cc1ccc(S(=O)(=O)N[C@@H](C)CO)cc1-c1cnc2c(N)nc(C(F)(F)F)nn12 is ____.
6.30 to 7.00

Fill blank: measured pIC50 of the compound Cc1ccc(S(=O)(=O)NC23CC(c4cnco4)(C2)C3)cc1-c1cnc2c(N)nc(C(F)(F)F)cn12 [Example 279, trifluoroacetate salt] is ____.
> 7.00

Fill blank: measured pIC50 of the compound Cc1nc2c(N)ncnn2c1-c1cccc(S(=O)(=O)NC23CCC(C#N)(C2)C3)c1 [Example 258, trifluoroacetate salt] is ____.
6.30 to 7.00

Fill blank: measured pIC50 of the compound Cc1ccc(S(=O)(=O)N[C@H]2CC[C@H](O)CC2)cc1-c1cnc2c(N)nc(-c3ccc(F)cc3)cn12 is ____.
> 7.00

Fill blank: measured pIC50 of the compound Cc1ccc(S(=O)(=O)N2CCOCC2(C)C)cc1-c1cnc2c(N)ncnn12 is ____.
5.70 to 6.30

Fill blank: measured pIC50 of the compound Cc1ccc(S(C)(=O)=O)cc1-c1cnc2c(N)nc(C(=O)NC3CCCN(S(C)(=O)=O)C3)cn12 (centres unmarked) [Example 462, trifluoroacetate salt] is ____.
5.70 to 6.30
